A collection of sequences and their measured PBM binding z-score
test system: LXRb:RXRa (NR concentration 270 nM, RXRa partner concentration 90 nM); assay: PBM binding z-score (relative to random genomic background probes); higher = stronger binding; sequences stand for … in GC…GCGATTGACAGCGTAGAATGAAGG
Write the number on its own, no unit after it.

INSERT INTO measurements (sequence_string, experimental_target, observation_type, reading) VALUES
  ('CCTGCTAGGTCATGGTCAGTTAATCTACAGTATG', 'LXRb:RXRa (NR concentration 270 nM, RXRa partner concentration 90 nM)', 'PBM binding z-score', 1.97),
  ('ATATGTAGGTTACATCCGGGTCATTCGGGCTATG', 'LXRb:RXRa (NR concentration 270 nM, RXRa partner concentration 90 nM)', 'PBM binding z-score', 2.96),
  ('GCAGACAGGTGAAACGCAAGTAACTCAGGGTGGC', 'LXRb:RXRa (NR concentration 270 nM, RXRa partner concentration 90 nM)', 'PBM binding z-score', -0.359),
  ('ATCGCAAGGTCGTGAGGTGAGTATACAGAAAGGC', 'LXRb:RXRa (NR concentration 270 nM, RXRa partner concentration 90 nM)', 'PBM binding z-score', 1.6),
  ('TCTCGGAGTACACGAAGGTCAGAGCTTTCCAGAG', 'LXRb:RXRa (NR concentration 270 nM, RXRa partner concentration 90 nM)', 'PBM binding z-score', 1.09),
  ('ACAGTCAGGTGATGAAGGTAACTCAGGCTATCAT', 'LXRb:RXRa (NR concentration 270 nM, RXRa partner concentration 90 nM)', 'PBM binding z-score', -0.331),
  ('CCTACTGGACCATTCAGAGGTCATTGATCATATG', 'LXRb:RXRa (NR concentration 270 nM, RXRa partner concentration 90 nM)', 'PBM binding z-score', 3.96),
  ('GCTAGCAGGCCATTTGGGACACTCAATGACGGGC', 'LXRb:RXRa (NR concentration 270 nM, RXRa partner concentration 90 nM)', 'PBM binding z-score', -1.16);

Would you mind telling me what PBM binding z-score value was observed for `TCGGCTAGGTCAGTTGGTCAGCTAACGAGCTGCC` ?
0.27

Find the recorded PBM binding z-score belonging to `CCTACTGGGCCATCAGGTCATTGACATCAACGTT` and report it.
2.01

Fill blank: measured PBM binding z-score of the sequence `TTACCAAGTTGAAGGTCGTTGATCCCTCTGTAGA` is ____.
1.56

Recorded PBM binding z-score of `CGAACGAGGGCATGAGCTGATAGCAAATGCCGAT` , please.
0.0131
